Sourced from patent US20120316071A1

Reported ELISA signal values for the following binders.
target: T1, Recombinant Human DLL4 (delta-like protein 4) (human, UniProt Q9NR61 27-524); assay: ELISA on coated DLL4, Fab at 25 nM (2-fold serial dilution)
T1 construct: also called rHuman DLL4; Delta-like 4

| binder | ELISA signal |
| --- | --- |
| Fab VH5-51_IGHD5-18*01>3_IGHJ4*01 G100K/G104T (KT) & V3-4_IGLJ1*01 R56A (Fab, V domains shown, Fab; also called H:KT & L:R56A) VH: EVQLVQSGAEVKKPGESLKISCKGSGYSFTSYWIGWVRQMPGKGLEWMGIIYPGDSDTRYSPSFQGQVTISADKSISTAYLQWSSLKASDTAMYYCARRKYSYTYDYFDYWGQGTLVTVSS VL: QTVVTQEPSFSVSPGGTVTLTCGLSSGSVSTSYYPSWYQQTPGQAPRTLIYSTNTASSGVPDRFSGSILGNKAALTITGAQADDESDYYCVLYMGSGISYVFGTGTKVTVL | 0.227 |
| Fab VH5-51_IGHD5-18*01>3_IGHJ4*01 G100K/G104T G24L & V3-4_IGLJ1*01 (Fab, V domains shown, Fab; also called H:KT G24L & L:parent) VH: EVQLVQSGAEVKKPGESLKISCKLSGYSFTSYWIGWVRQMPGKGLEWMGIIYPGDSDTRYSPSFQGQVTISADKSISTAYLQWSSLKASDTAMYYCARRKYSYTYDYFDYWGQGTLVTVSS VL: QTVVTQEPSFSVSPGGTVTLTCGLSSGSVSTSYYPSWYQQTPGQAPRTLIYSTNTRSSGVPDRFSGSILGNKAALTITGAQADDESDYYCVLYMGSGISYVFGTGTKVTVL | 0.221 |
| Fab VH5-51_IGHD5-18*01>3_IGHJ4*01 G100K/G104T T58A & V3-4_IGLJ1*01 (Fab, V domains shown, Fab; also called H:KT T58A & L:parent) VH: EVQLVQSGAEVKKPGESLKISCKGSGYSFTSYWIGWVRQMPGKGLEWMGIIYPGDSDARYSPSFQGQVTISADKSISTAYLQWSSLKASDTAMYYCARRKYSYTYDYFDYWGQGTLVTVSS VL: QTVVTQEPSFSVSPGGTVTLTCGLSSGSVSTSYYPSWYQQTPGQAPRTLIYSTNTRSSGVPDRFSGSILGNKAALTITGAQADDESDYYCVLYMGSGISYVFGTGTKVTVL | 0.22 |
| Fab VH5-51_IGHD5-18*01>3_IGHJ4*01 G100K/G104T (KT) & V3-4_IGLJ1*01 R56Y (Fab, V domains shown, Fab; also called H:KT & L:R56Y) VH: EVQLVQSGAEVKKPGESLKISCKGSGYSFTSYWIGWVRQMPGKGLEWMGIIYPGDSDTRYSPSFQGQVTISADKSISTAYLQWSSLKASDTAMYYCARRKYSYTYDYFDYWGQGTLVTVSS VL: QTVVTQEPSFSVSPGGTVTLTCGLSSGSVSTSYYPSWYQQTPGQAPRTLIYSTNTYSSGVPDRFSGSILGNKAALTITGAQADDESDYYCVLYMGSGISYVFGTGTKVTVL | 0.205 |
| Fab VH5-51_IGHD5-18*01>3_IGHJ4*01 G100K/G104T T58D & V3-4_IGLJ1*01 (Fab, V domains shown, Fab; also called H:KT T58D & L:parent) VH: EVQLVQSGAEVKKPGESLKISCKGSGYSFTSYWIGWVRQMPGKGLEWMGIIYPGDSDDRYSPSFQGQVTISADKSISTAYLQWSSLKASDTAMYYCARRKYSYTYDYFDYWGQGTLVTVSS VL: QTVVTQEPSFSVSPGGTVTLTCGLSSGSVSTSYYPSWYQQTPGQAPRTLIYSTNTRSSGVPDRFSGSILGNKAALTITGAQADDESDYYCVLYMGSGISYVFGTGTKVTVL | 0.218 |
| Fab VH5-51_IGHD5-18*01>3_IGHJ4*01 G100K/G104T G35V & V3-4_IGLJ1*01 (Fab, V domains shown, Fab; also called H:KT G35V & L:parent) VH: EVQLVQSGAEVKKPGESLKISCKGSGYSFTSYWIVWVRQMPGKGLEWMGIIYPGDSDTRYSPSFQGQVTISADKSISTAYLQWSSLKASDTAMYYCARRKYSYTYDYFDYWGQGTLVTVSS VL: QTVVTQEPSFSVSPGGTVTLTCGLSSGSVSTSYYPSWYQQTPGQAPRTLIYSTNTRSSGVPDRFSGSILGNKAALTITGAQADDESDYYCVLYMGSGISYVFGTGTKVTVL | 0.232 |
| Fab VH5-51_IGHD5-18*01>3_IGHJ4*01 G100K/G104T (KT) & V3-4_IGLJ1*01 S52G (Fab, V domains shown, Fab; also called H:KT & L:S52G) VH: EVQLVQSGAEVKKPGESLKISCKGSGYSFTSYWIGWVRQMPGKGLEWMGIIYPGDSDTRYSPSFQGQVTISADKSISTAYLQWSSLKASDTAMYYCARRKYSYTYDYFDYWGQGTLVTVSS VL: QTVVTQEPSFSVSPGGTVTLTCGLSSGSVSTSYYPSWYQQTPGQAPRTLIYGTNTRSSGVPDRFSGSILGNKAALTITGAQADDESDYYCVLYMGSGISYVFGTGTKVTVL | 0.227 |
| Fab VH5-51_IGHD5-18*01>3_IGHJ4*01 G100K/G104T S28R & V3-4_IGLJ1*01 (Fab, V domains shown, Fab; also called H:KT S28R & L:parent; H:KT S28R & L:wt) VH: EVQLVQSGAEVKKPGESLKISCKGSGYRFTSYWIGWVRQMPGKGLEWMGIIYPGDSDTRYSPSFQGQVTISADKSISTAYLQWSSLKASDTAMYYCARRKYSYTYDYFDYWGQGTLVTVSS VL: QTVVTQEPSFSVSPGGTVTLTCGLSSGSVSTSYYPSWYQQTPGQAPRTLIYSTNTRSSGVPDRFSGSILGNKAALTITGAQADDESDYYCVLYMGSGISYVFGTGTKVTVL | 0.365 |
